Provenance of the data: PubChem BioAssay

assay: modulators of HCV replicon luciferase signal, primary screen, HCV replication inhibitor project, Huh7 cells, luciferase reporter (AID 1109); details: 48 h, higher = more signal;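 also: huh7 hepatoma cells harbouring a luciferase neomycin HCV replicon reporter; luciferase luminescence as measure of HCV replicon replication; test concentration not given here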
Quick rule: z-score of at least -2 means Met, below that means Not met.

These solved cases illustrate the format of a correct answer.
| molecule | label |
| --- | --- |
| COC(=O)C1N=C(c2ccc(OCCCO)cc2)N(c2ccccc2)O1 (stereo unspecified) | Not met |
| COc1ccc(C#Cc2ccc3c(c2)[C@]2(C(=O)N3)[C@H](C(=O)N3CCCCCCC3)[C@H]3C(=O)O[C@H](c4ccccc4)[C@H](c4ccccc4)N3[C@@H]2c2ccc(O)cc2)cc1 | Met |
| C=C(COC)C(=O)CC[C@@H](OC(=O)c1cccnc1)c1ccccc1OCCO | Not met |

[ask] Threshold query (z-score >= -2) on CN1C(=O)[C@@H]2[C@@H](CC(COc3ccccc3)=C([C@H](O)CCc3ccccc3)[C@@H]2CO)C1=O
[reply] Met

[ask] In plain terms: is recorded z-score at least -2 for C[C@]1(C(=O)O)c2ccccc2C(=O)N(Cc2ccc(OC(F)(F)F)cc2)[C@H]1c1ccc(CO)cc1 ?
[reply] Met

[ask] Does z-score meet or surpass -2 for C=C[C@@H](OC)[C@H](OC(=O)Nc1ccc(OC)cc1)c1ccc(OC)c(O)c1 ?
[reply] Met

[ask] # bool: z-score of CC(C)C(=C=CC[C@H](O)c1cccc(OCCO)c1)CCO >= -2
[reply] Met

[ask] Confirm if z-score reported for the molecule CC1CC/C=C\[C@H]2OC34C=CCN(C(C)(C)C)C(=O)[C@H]3N(C(CO)C(C)C)C(=O)[C@@H]4C2C(=O)O1 (stereo partly specified) is -2 or above.
[reply] Met

====

test system: Neuregulin-1 EGF-like domain; experiment: binders of neuregulin-1 EGF-like domain, primary screen, biochemical, small-molecule microarray, 635 nm fluorescence (AID 1081); conditions: small-molecule microarray binding, higher = more signal;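 also: binding of the protein to compounds printed on small-molecule microarray slides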
quantity kind: composite z-score

| smi | data value |
| --- | --- |
| C=CCNC(=O)[C@@H]1[C@H]2C(=O)O[C@H](c3ccccc3)[C@H](c3ccccc3)N2[C@H](c2ccc(O)cc2)[C@@]12C(=O)Nc1ccc(C#CCC(C(=O)OC)C(=O)OC)cc12 | 0.95 |

Could you tell me composite z-score for each of these compounds? They are listed below.
1. Cc1ccc(S[C@]2(C(=O)NC(C)C)CC(=O)N(C(C)C)[C@@H]2c2ccc(CO)cc2I)cc1
2. O=C1[C@@]23C=C(Br)[C@H](C[C@@H]2COC3)[C@@]12CO2
3. O=C(N1CCOCC1)[C@@]1(CCS(=O)(=O)c2ccccc2)N=C(c2ccc(OCCCO)cc2)O[C@H]1c1ccccc1

[reply]
1: 1.05; 2: 0.0447; 3: 1.37

====

test: basal S. cerevisiae growth modulation, no modifier, primary screen, OD600, strain BY4716, 24 h, basal condition (AID 1173); details: OD600, 24 h, called active from +8 up or from −8 down
Activity calls are given as the source filed them.
Choose the fitting class; nothing outside 1 (active), 0 (inactive) is accepted.

| molecule | label |
| --- | --- |
| COC(=O)[C@@]1(Cc2ccccc2CN=[N+]=[N-])N=C(c2ccc(OCCCO)cc2)O[C@H]1c1ccccc1 | 0 |
| CC(C)(C)OC(=O)CC[C@]1(C(=O)N2CCCCC2)COC(c2ccc(OCCCO)cc2)=N1 | 0 |
| CCOC(=O)C=Cc1ccccc1O | 1 |
| CN(C)CCCCCCNC(=O)[C@@H]1C[C@@H]2C(=O)N[C@@H](CCCCN)C(=O)N2[C@@H]1c1ccc(O)cc1 | 0 |
| COc1cc(NN2C(C(O)c3ccc(I)cc3)C=CC3C(=O)N(c4ccccc4)C(=O)C32)cc(OC)c1OC (stereo not drawn) | 0 |

[ask] Could you please tell me the result logged for O=C1[C@@H]2[C@@H](CC(COc3ccccc3)=C3[C@@H](CCc4ccccc4)OB(O)C[C@@H]32)C(=O)N1Cc1ccccc1 in this assay?
[reply] 0

[ask] Each molecule tested received a call. Report the one for CCCC=C(CCC)[C@@H](NS(=O)(=O)c1cccc2cccnc12)c1ccc(-c2ccccc2)cc1 .
[reply] 0

[ask] Just curious, what result did C=C(/C(=C/C[C@H](OC(=O)c1ccncc1)c1ccccc1OCCO)c1cnc2ccccc2c1)C(C)C get here?
[reply] 0
